Measured values drawn from patent USRE46585 for this set.

Overview of recorded Ratio/FWT for various binders
- target system: T1, FcRn-p3 fusion protein (human, UniProt P55899 24-297; P61769 21-119)
- T1 construct: baculovirus expressed; coated on ELISA wells; not shown: amino terminal part of bacteriophage p3 protein and CVDE protein
- T1 sequence (P55899 24-297, chain 1 of 2): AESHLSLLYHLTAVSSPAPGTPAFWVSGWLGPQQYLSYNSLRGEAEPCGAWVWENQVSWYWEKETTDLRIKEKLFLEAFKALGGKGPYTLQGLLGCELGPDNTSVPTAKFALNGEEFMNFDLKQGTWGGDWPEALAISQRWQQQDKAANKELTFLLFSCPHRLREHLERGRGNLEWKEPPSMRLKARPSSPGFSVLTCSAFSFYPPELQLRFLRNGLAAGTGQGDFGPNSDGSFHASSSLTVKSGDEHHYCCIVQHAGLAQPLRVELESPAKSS
- T1 sequence (P61769 21-119, chain 2 of 2): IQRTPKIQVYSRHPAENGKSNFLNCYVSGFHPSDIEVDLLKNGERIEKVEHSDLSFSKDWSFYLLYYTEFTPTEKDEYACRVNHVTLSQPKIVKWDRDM
- measurement notes: phage ELISA pH6 (est.)
Kindly answer with a numeric value in fold, unit omitted.

C5A_19 (other, EU numbering) CPPCPAPELLGGPSVFLFPPKPKDTLMISRTPEVTCVVADVSHEDPEVKFNWYVDGVEVHNAKTKPREEQYNSTYRVVSALTVLHQDWLDGKEYKCKVSNKALPVPIEKTISKAKGQPREPQVYTLPPSRDELTKNQVSLTCLVKGFYPSDIAVEWESNGQPENNYKTTPPVLDSDGSFFLYSKLTVDKSRWQQGNVFSCSVMHEALHYHYTQKSLSLSPGK | 9.3
T7A_24 (other, EU numbering) CPPCPAPELLGGPSVFLFPPKPKDTLMISRTPEVTCVVEDVSHEDPEVKFNWYVDGVEVHNAKTKPREEQYNSTYRVVSVLTVLHQDWLNGKEYKCKVSNKALPAPIEKTISKAKGQPREPQVYTLPPSRDELTKNQVSLTCLVKGFYPSDIVVEWESNGQPENNYKTTPPVLDSDGSFFLYSKLTVDKSRWQQGTVFSCSVMHEALHYHYTQKSLSLSPGK | 7.2

API: the following record is the query input.
Value lookup for Ratio/FWT; key = M3A_35 (other, EU numbering) CPPCPAPELLGGPSVFLFPPKPKDTLMISRTPEVTCVVEDVSHEDPEVKFNWYVDGVEVHNAKTKPREEQYNSTYRVVSVLTVLHQDWLDGKEYKCKVSNKALPAPIEKTISKAKGQPREPQVYTLPPSRDELTKNQVSLTCLVKGFYPSDIAVEWESNGQPENNYKTTPLVLDSDGSFFLYSKLTVDKSRWQQGNVFSCSVMHEALHNHYTQKSLSLSPGK
3.7
